Experiment: In vivo antitumor assay, P388/ADR(iv)
Set-up: species or system mice
Conditions: mouse, in vivo, iv, drug iv, qd 1-3, exp 1149B
quantity.name: MTD (mg/kg)
Provide the reading as a plain figure in mg/kg.

Input: # input compound: Cc1cc(-c2c(F)cc3c4nn(CCN(C)C)c(=O)c-4cn(C4CC4)c3c2F)cc(C)n1.O=C(O)/C=C/C(=O)O ; wanted: its MTD
Output: 52

###

Experiment: In vivo antitumor assay, MXI(src)
Design: species or system mice
Conditions: mouse, in vivo, drug ip, qd 1,5,9, exp SD-18
Each entry below lists one item and its recorded MTD value.
Provide the reading as a plain figure in mg/kg.

Cc1cc(-c2c(F)cc3c4nn([C@H]5CC[C@H](N(C)C)CC5)c(=O)c-4cn(C4CC4)c3c2F)cc(C)n1 [Example 51b]
99

Input: # input molecule: Cc1cc(-c2c(F)cc3c4nn(CCN(C)C)c(=O)c-4cn(C4CC4)c3c2F)cc(C)n1.O=C(O)/C=C/C(=O)O ; wanted: its MTD
Output: 52

###

Molecular target: human topoisomerase II (Homo sapiens, UniProt P11388)
Construct: Topo II was purified from late log phase suspension cultures of HeLa WIS; endogenous in cells; host or cells: HeLa WIS
Sequence (P11388 whole entry): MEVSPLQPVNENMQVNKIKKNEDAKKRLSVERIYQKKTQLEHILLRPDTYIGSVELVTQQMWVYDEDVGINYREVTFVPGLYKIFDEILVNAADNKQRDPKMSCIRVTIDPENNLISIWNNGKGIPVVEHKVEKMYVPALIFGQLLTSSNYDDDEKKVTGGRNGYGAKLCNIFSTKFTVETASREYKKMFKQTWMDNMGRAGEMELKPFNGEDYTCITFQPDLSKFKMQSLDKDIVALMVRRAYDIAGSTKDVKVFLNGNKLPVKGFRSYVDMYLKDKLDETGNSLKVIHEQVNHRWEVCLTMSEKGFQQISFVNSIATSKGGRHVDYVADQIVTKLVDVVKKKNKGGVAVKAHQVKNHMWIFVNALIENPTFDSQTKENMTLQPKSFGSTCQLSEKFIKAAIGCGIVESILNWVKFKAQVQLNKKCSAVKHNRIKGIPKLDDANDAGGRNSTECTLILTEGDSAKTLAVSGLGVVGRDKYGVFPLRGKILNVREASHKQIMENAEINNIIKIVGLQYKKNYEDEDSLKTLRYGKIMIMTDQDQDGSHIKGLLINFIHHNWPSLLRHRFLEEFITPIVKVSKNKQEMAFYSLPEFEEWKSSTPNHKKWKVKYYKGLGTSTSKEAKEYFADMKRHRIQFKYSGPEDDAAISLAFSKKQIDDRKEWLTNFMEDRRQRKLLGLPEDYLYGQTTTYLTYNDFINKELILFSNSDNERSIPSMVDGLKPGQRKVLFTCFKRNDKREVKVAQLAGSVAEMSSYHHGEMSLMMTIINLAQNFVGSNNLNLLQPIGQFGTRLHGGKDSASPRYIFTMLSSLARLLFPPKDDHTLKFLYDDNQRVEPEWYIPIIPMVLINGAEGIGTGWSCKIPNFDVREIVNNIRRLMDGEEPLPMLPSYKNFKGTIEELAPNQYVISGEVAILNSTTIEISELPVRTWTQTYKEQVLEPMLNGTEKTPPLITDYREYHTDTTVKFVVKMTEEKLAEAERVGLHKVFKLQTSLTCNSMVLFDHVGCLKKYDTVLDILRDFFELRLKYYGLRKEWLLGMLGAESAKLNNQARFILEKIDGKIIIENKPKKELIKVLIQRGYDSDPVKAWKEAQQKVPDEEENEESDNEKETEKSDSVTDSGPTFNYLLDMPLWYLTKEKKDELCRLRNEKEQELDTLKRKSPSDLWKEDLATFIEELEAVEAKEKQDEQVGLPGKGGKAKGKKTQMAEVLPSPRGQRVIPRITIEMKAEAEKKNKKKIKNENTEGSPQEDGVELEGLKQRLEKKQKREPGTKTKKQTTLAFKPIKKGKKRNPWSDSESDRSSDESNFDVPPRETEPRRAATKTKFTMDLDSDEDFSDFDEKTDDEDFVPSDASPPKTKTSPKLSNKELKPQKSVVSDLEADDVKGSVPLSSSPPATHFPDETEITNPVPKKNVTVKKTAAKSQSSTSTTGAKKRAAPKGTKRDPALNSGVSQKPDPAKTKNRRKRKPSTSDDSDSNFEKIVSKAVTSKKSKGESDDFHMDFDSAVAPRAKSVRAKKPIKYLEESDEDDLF
Assay: Mammalian topoisomerase II inhibition assay (topo II covalently attached to DNA, relative to mAMSA)
Assay type: biochemical
Conditions: conc. achieving 50% of maximal effect of mAMSA; topo II from HeLa cells; read-out: topo II inh. EC50
Strictly below 4 µM in EC50: fulfilled. Otherwise: not fulfilled.

COc1cc(Cn2nc3c4cc(F)c(-c5cc(C)nc(C)c5)c(F)c4n(C4CC4)cc-3c2=O)cc(OC)c1OC
not fulfilled
Cc1cc(-c2c(F)cc3c4nn(-c5ccccc5O)c(=O)c-4cn(C4CC4)c3c2F)cc(C)n1
fulfilled
Cc1cc(-c2c(F)cc3c4nn([C@H]5CC[C@@H](NC=O)CC5)c(=O)c-4cn(C4CC4)c3c2F)cc(C)n1
fulfilled
Cc1cc(-c2c(F)cc3c4nn(C5CCc6ccccc6C5)c(=O)c-4cn(C4CC4)c3c2F)cc(C)n1 (stereo not drawn)
fulfilled
Cc1cc(-c2c(F)cc3c4nn(CCCCN(C)C)c(=O)c-4cn(C4CC4)c3c2F)cc(C)n1
not fulfilled

Here is the next item to consider.
Input: Given Cc1cc(-c2c(F)cc3c4nn(CC(F)(F)F)c(=O)c-4cn(C4CC4)c3c2F)cc(C)n1 , is recorded EC50 strictly lower than 4 µM?
Output: not fulfilled

###

Assay: In vivo antitumor assay, Panc03(sc)
Parameters: species or system mice
Details: mouse, in vivo, iv, MTD
quantity.name: MTD (mg/kg)
Provide the reading as a plain figure in mg/kg.

Cc1cc(-c2c(F)cc3c4nn([C@H]5CC[C@@H](N(C)C)CC5)c(=O)c-4cn(C4CC4)c3c2F)cc(C)n1 [Example 51a]
63

Input: # input molecule: COc1ccc(-n2nc3c4cc(F)c(-c5cc(C)nc(C)c5)c(F)c4n(C4CC4)cc-3c2=O)cc1 [Example 23] ; wanted: its MTD
Output: 140

Input: Query Cc1cc(-c2c(F)cc3c4nn(CCCN(C)C)c(=O)c-4cn(C4CC4)c3c2F)cc(C)n1 [Example 14] next
Output: 107

Input: Query Cc1cc(-c2c(F)cc3c4nn([C@H]5CC[C@@H](N)CC5)c(=O)c-4cn(C4CC4)c3c2F)cc(C)n1 [Example 56a] next
Output: 110

Input: Query Cc1cc(-c2c(F)cc3c4nn(CCC5CCCN5C)c(=O)c-4cn(C4CC4)c3c2F)cc(C)n1 (stereo not drawn) [Example 21] next
Output: 80

Input: Query Cc1cc(-c2c(F)cc3c4nn(C5CCN(C)CC5)c(=O)c-4cn(C4CC4)c3c2F)cc(C)n1 [Example 50] next
Output: 128
